Molecular target: sorbitol dehydrogenase (Ovis aries)
Sequence (P07846 whole entry): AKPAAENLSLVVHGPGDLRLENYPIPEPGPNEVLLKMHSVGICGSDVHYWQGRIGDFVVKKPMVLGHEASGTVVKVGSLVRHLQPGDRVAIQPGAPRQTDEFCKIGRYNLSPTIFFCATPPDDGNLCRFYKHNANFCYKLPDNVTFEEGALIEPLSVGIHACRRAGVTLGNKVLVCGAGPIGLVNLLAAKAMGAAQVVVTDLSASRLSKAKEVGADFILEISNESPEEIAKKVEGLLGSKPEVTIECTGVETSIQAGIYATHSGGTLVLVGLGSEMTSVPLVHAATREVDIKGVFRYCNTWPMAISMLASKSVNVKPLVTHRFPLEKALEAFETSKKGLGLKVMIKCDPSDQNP
Assay: inhibition of sorbitol dehydrogenase in vitro (direct test)
Assay type: biochemical
Details: tested directly on sorbitol dehydrogenase in vitro
quantityKind: pIC50
A value of pIC50 is the negative decimal logarithm of a concentration given in moles per litre.

Problem: Name the recorded pIC50 of the item Cc1nccc(N2CCN(S(=O)(=O)N(C)C)CC2)n1 in your answer.
Result: 3.30
